# Tested on: HeLa Kyoto
# Assay info: solubility in G1/S (NP-40 vs SDS abundance) (log2 ratio); higher = more soluble
# Measurement context: cell cycle stage: G1/S
Metric name: solubility in G1/S (log2)
// no unit, no text: just the number

Quick one: solubility in G1/S (log2) for MDMLDPGLDPAASATAAAAASHDKGPEAEEGVELQEGGDGPGAEEQTAVAITSVQQAAFGDHNIQYQFRTETNGGQVTYRVVQVTDGQLDGQGDTAGAVSVVSTAAFAGGQQAVTQVGVDGAAQRPGPAAASVPPGPAAPFPLAVIQNPFSNGGSPAAEAVSGEARFAYFPASSVGDTTAVSVQTTDQSLQAGGQFYVMMTPQDVLQTGTQRTIAPRTHPYSPKIDGTRTPRDERRRAQHNEVERRRRDKINNWIVQLSKIIPDCNADNSKTGASKGGILSKACDYIRELRQTNQRMQETFKEAERLQMDNELLRQQIEELKNENALLRAQLQQHNLEMVGEGTRQ [USF2] ?
-0.0293

====

# System: HeLa Kyoto
# Assay info: thermal stability score vs G1/S (z-score of summed log2 fold changes over temperatures); higher = more thermally stable than in G1/S
# Measurement context: cell cycle stage: early G1 (4.5 h after nocodazole release)
Metric name: thermal stability score
// no unit, no text: just the number

Quick one: thermal stability score for MDLSELERDNTGRCRLSSPVPAVCRKEPCVLGVDEAGRGPVLGPMVYAICYCPLPRLADLEALKVADSKTLLESERERLFAKMEDTDFVGWALDVLSPNLISTSMLGRVKYNLNSLSHDTATGLIQYALDQGVNVTQVFVDTVGMPETYQARLQQSFPGIEVTVKAKADALYPVVSAASICAKVARDQAVKKWQFVEKLQDLDTDYGSGYPNDPKTKAWLKEHVEPVFGFPQFVRFSWRTAQTILEKEAEDVIWEDSASENQEGLRKITSYFLNEGSQARPRSSHRYFLERGLESATSL [RNASEH2A] ?
0.166

Quick one: thermal stability score for MSTAAVPELKQISRVEAMRLGPGWSHSCHAMLYAANPGQLFGRIPMRFSVLMQMRFDGLLGFPGGFVDRRFWSLEDGLNRVLGLGLGCLRLTEADYLSSHLTEGPHRVVAHLYARQLTLEQLHAVEISAVHSRDHGLEVLGLVRVPLYTQKDRVGGFPNFLSNAFVSTAKCQLLFALKVLNMMPEEKLVEALAAATEKQKKALEKLLPASS [NUDT16L1] ?
-0.0688

Quick one: thermal stability score for MSFLLPKLTSKKEVDQAIKSTAEKVLVLRFGRDEDPVCLQLDDILSKTSSDLSKMAAIYLVDVDQTAVYTQYFDISYIPSTVFFFNGQHMKVDYGSPDHTKFVGSFKTKQDFIDLIEVIYRGAMRGKLIVQSPIDPKNIPKYDLLYQDI [TXNL4B] ?
0.0365

Quick one: thermal stability score for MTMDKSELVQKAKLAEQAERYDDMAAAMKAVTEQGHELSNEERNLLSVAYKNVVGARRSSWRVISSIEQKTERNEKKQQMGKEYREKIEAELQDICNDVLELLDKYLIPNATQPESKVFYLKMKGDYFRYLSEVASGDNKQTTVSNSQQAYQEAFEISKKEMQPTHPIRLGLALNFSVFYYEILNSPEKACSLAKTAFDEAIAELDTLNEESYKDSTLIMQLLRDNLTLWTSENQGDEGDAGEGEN [YWHAB] ?
-1.46

Quick one: thermal stability score for MAAVAALQLGLRAAGLGRAPASAAWRSVLRVSPRPGVAWRPSRCGSSAAEASATKAEDDSFLQWVLLLIPVTAFGLGTWQVQRRKWKLNLIAELESRVLAEPVPLPADPMELKNLEYRPVKVRGCFDHSKELYMMPRTMVDPVREAREGGLISSSTQSGAYVVTPFHCTDLGVTILVNRGFVPRKKVNPETRQKGQIEGEVDLIGMVRLTETRQPFVPENNPERNHWHYRDLEAMARITGAEPIFIDANFQSTVPGGPIGGQTRVTLRNEHLQYIVTWYGLSAATSYLWFKKFLRGTPGV [SURF1] ?
-0.638

Quick one: thermal stability score for MKEGRGSFSVERGPRKERETAQSGMWKGNSPAGSQGAAMEGTGGELGGQGNWGPEDAPGLLARASLIMLPWPLPLASSALTLLFGALTSLFLWYCYRLGSQDMQALGAGSRAGGVRGGPVGCSEAGGPSPGGPGDPGEGPRTEGLVSRRLRAYARRYSWAGMGRVRRAAQGGPGPGRGPGVLGIQRPGLLFLPDLPSAPFVPRDAQRHDVELLESSFPAILRDFGAVSWDFSGTTPPPRGWSPPLAPGCYQLLLYQAGRCQPSNCRRCPGAYRALRGLRSFMSANTFGNAGFSVLLPGARLEGRCGPTNARVRCHLGLKIPPGCELVVGGEPQCWAEGHCLLVDDSFLHTVAHNGSPEDGPRVVFIVDLWHPNVAGAERQALDFVFAPDP [ASPHD1] ?
1.03

Quick one: thermal stability score for MSPARRCRGMRAAVAASVGLSEGPAGSRSGRLFRPPSPAPAAPGARLLRLPGSGAVQAASPERAGWTEALRAAVAELRAGAVVAVPTDTLYGLACAASCSAALRAVYRLKGRSEAKPLAVCLGRVADVYRYCRVRVPEGLLKDLLPGPVTLVMERSEELNKDLNPFTPLVGIRIPDHAFMQDLAQMFEGPLALTSANLSSQASSLNVEEFQDLWPQLSLVIDGGQIGDGQSPECRLGSTVVDLSVPGKFGIIRPGCALESTTAILQQKYGLLPSHASYL [YRDC] ?
0.325

Quick one: thermal stability score for MMCGAPSATQPATAETQHIADQVRSQLEEKENKKFPVFKAVSFKSQVVAGTNYFIKVHVGDEDFVHLRVFQSLPHENKPLTLSNYQTNKAKHDELTYF [CSTB] ?
-2.35

Quick one: thermal stability score for MAPWGKRLAGVRGVLLDISGVLYDSGAGGGTAIAGSVEAVARLKRSRLKVRFCTNESQKSRAELVGQLQRLGFDISEQEVTAPAPAACQILKEQGLRPYLLIHDGVRSEFDQIDTSNPNCVVIADAGESFSYQNMNNAFQVLMELEKPVLISLGKGRYYKETSGLMLDVGPYMKALEYACGIKAEVVGKPSPEFFKSALQAIGVEAHQAVMIGDDIVGDVGGAQRCGMRALQVRTGKFRPSDEHHPEVKADGYVDNLAEAVDLLLQHADK [LHPP] ?
-1.67

Quick one: thermal stability score for MENGYTYEDYKNTAEWLLSHTKHRPQVAIICGSGLGGLTDKLTQAQIFDYGEIPNFPRSTVPGHAGRLVFGFLNGRACVMMQGRFHMYEGYPLWKVTFPVRVFHLLGVDTLVVTNAAGGLNPKFEVGDIMLIRDHINLPGFSGQNPLRGPNDERFGDRFPAMSDAYDRTMRQRALSTWKQMGEQRELQEGTYVMVAGPSFETVAECRVLQKLGADAVGMSTVPEVIVARHCGLRVFGFSLITNKVIMDYESLEKANHEEVLAAGKQAAQKLEQFVSILMASIPLPDKAS [PNP] ?
-0.982

Quick one: thermal stability score for MDGEEQQPPHEANVEPVVPSEASEPVPRVLSGDPQNLSDVDAFNLLLEMKLKRRRQRPNLPRTVTQLVAEDGSRVYVVGTAHFSDDSKRDVVKTIREVQPDVVVVELCQYRVSMLKMDESTLLREAQELSLEKLQQAVRQNGLMSGLMQMLLLKVSAHITEQLGMAPGGEFREAFKEASKVPFCKFHLGDRPIPVTFKRAIAALSFWQKVRLAWGLCFLSDPISKDDVERCKQKDLLEQMMAEMIGEFPDLHRTIVSERDVYLTYMLRQAARRLELPRASDAEPRKCVPSVVVGVVGMGHVPGIEKNWSTDLNIQEIMTVPPPSVSGRVSRLAVKAAFFGLLGYSLYWMGRRTASLVLSLPAAQYCLQRVTEARHK [TRABD] ?
0.0844

====

# Tested on: HeLa Kyoto
# Assay info: solubility in G1/S (NP-40 vs SDS abundance) (log2 ratio); higher = more soluble
# Measurement context: cell cycle stage: G1/S
Short version: solubility in G1/S (log2) at least -0.01 is 1, less is 0.

Dear colleague, could you confirm whether MAPLRFSANLSWLFPELSGLPARVRAAGSSGFEAVEVAWPYAETPEALARAAREAGLRLVLINTPPGDQEKGEMGLGAVPGRQAAFREGLEQAVRYAKALGCPRIHLMAGRVPQGADRIAVKAEMEAVFLENLRHAAGVLAQEDLVGLLEPINTRITDPQYFLDTPQQAAAILQKVGRPNLQLQMDIFHWQIMDGNLTGNIREFLPIVGHVQVAQVPGRGEPSSPGELNFPYLFQLLEDEGYKGFVGCEYQPRGDTVEGLSWLRSYWDRRGHPEAGQ [HYI] has solubility in G1/S (log2) at or above -0.01?
1

Dear colleague, could you confirm whether MAAVSGLVRRPLREVSGLLKRRFHWTAPAALQVTVRDAINQGMDEELERDEKVFLLGEEVAQYDGAYKVSRGLWKKYGDKRIIDTPISEMGFAGIAVGAAMAGLRPICEFMTFNFSMQAIDQVINSAAKTYYMSGGLQPVPIVFRGPNGASAGVAAQHSQCFAAWYGHCPGLKVVSPWNSEDAKGLIKSAIRDNNPVVVLENELMYGVPFEFPPEAQSKDFLIPIGKAKIERQGTHITVVSHSRPVGHCLEAAAVLSKEGVECEVINMRTIRPMDMETIEASVMKTNHLVTVEGGWPQFGVGAEICARIMEGPAFNFLDAPAVRVTGADVPMPYAKILEDNSIPQVKDIIFAIKKTLNI [PDHB] has solubility in G1/S (log2) at or above -0.01?
1

Dear colleague, could you confirm whether MHGHGGYDSDFSDDERCGESSKRKKRTVEDDLLLQKPFQKEKHGKVAHKQVAAELLDREEARNRRFHLIAMDAYQRHTKFVNDYILYYGGKKEDFKRLGENDKTDLDVIRENHRFLWNEEDEMDMTWEKRLAKKYYDKLFKEYCIADLSKYKENKFGFRWRVEKEVISGKGQFFCGNKYCDKKEGLKSWEVNFGYIEHGEKRNALVKLRLCQECSIKLNFHHRRKEIKSKKRKDKTKKDCEESSHKKSRLSSAEEASKKKDKGHSSSKKSEDSLLRNSDEEESASESELWKGPLPETDEKSQEEEFDEYFQDLFL [FRA10AC1] has solubility in G1/S (log2) at or above -0.01?
0

Dear colleague, could you confirm whether MSVAGGEIRGDTGGEDTAAPGRFSFSPEPTLEDIRRLHAEFAAERDWEQFHQPRNLLLALVGEVGELAELFQWKTDGEPGPQGWSPRERAALQEELSDVLIYLVALAARCRVDLPLAVLSKMDINRRRYPAHLARSSSRKYTELPHGAISEDQAVGPADIPCDSTGQTST [DCTPP1] has solubility in G1/S (log2) at or above -0.01?
0

Dear colleague, could you confirm whether MNPLTKVKLINELNEREVQLGVADKVSWHSEYKDSAWIFLGGLPYELTEGDIICVFSQYGEIVNINLVRDKKTGKSKGFCFLCYEDQRSTILAVDNFNGIKIKGRTIRVDHVSNYRAPKDSEEIDDVTRQLQEKGCGARTPSPSLSESSEDEKPTKKHKKDKKEKKKKKKEKEKADREVQAEQPSSSSPRRKTVKEKDDTGPKKHSSKNSERAQKSEPREGQKLPKSRTAYSGGAEDLERELKKEKPKHEHKSSSRREAREEKTRIRDRGRSSDAHSSWYNGRSEGRSYRSRSRSRDKSHRHKRARRSRERESSNPSDRWRH [RBMX2] has solubility in G1/S (log2) at or above -0.01?
0

Values were extracted from the supplement of paper PMC5998384.
